molecular target: TLR8 (Homo sapiens, UniProt Q9NR97); experiment: huPBMC TLR8 Antagonist IL-6 TR-FRET Assay; format: cell-based; set-up: Fresh blood was collected from normal human donors; endogenous in cells; host or cells: human PBMCs from fresh donor blood; settings: human PBMCs stimulated with ssRNA40 1 μg/ml (DOTAP), 14-16 hrs; IL-6 TR-FRET read-out
Sequence (Q9NR97 27-1041): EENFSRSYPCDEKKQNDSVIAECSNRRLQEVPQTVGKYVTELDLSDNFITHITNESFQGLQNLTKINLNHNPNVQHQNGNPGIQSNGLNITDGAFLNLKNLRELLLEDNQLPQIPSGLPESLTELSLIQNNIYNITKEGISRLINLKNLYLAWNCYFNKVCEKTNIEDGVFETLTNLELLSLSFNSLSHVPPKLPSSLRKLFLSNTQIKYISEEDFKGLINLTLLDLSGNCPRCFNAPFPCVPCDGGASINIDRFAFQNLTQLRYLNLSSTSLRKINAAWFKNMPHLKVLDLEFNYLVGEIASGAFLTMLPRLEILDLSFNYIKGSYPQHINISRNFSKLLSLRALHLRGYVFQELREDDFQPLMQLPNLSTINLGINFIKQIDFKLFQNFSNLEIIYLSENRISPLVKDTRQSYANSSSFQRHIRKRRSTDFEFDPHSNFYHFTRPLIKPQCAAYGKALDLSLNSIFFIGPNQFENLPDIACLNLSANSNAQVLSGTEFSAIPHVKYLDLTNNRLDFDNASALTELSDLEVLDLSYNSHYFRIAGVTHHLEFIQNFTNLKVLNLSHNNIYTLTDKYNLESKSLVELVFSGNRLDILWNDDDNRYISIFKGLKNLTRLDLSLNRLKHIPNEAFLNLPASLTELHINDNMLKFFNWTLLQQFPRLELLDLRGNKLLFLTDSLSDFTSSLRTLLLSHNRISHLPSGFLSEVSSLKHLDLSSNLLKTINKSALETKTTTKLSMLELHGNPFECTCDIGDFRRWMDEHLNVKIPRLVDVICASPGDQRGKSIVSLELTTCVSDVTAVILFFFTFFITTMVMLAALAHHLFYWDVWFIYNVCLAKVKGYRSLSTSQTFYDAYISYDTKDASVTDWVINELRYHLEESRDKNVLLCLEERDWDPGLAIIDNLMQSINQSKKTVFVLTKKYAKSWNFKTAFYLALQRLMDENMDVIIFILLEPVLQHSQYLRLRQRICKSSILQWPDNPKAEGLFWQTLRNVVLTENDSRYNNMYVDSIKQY
pIC50: −log10 of the molar value.
Some compounds, each annotated with its measured pIC50.
endpoint-name: pIC50

compound="Cc1cc(N2CCc3c(c(C)nn3CC34CCC(N(C)C5COC5)(CC3)CC4)C2)c2cnn(C)c2n1 [Compound No. 77]" assay_system="TLR8 (Homo sapiens, UniProt Q9NR97)" value_measured=6.50
compound="Cc1cc(N2CCc3c(c(C)nn3CC34CCC(NCC(=O)N5CCCCC5)(CC3)CC4)C2)c2cnn(C)c2n1 [compound 99]" assay_system="TLR8 (Homo sapiens, UniProt Q9NR97)" value_measured=6.89
compound="COCCN(CCOC)C12CCC(Cn3nc(C)c4c3CCN(c3cc(C)nc5c3cnn5C)C4)(CC1)CC2 [Compound No. 70]" assay_system="TLR8 (Homo sapiens, UniProt Q9NR97)" value_measured=6.42
compound="CNCCC(=O)NC12CCC(Cn3nc(C)c4c3CCN(c3cc(C)nc5c3cnn5C)C4)(CC1)CC2 [compound 142]" assay_system="TLR8 (Homo sapiens, UniProt Q9NR97)" value_measured=6.03
compound="Cc1cc(N2CCc3c(c(C)nn3CC34CCC(N5CCS(=O)(=O)CC5)(CC3)CC4)C2)c2cnn(C)c2n1 [compound 66]" assay_system="TLR8 (Homo sapiens, UniProt Q9NR97)" value_measured=5.95
compound="COCCNC12CCC(Cn3nc(C)c4c3CCN(c3cc(C)nc5c3cnn5C)C4)(CC1)OC2 [compound 102]" assay_system="TLR8 (Homo sapiens, UniProt Q9NR97)" value_measured=6.44
compound="Cc1ccc(-c2cc(N3CCc4c(c(C)nn4CC45CCC(N)(CC4)CC5)C3)ccn2)cc1 [compound 90]" assay_system="TLR8 (Homo sapiens, UniProt Q9NR97)" value_measured=6.00
compound="Cc1nc(N2CCc3c(c(C)nn3CC34CCC(N(C5CCC5)C5CCC5)(CC3)CC4)C2)c2c(n1)c(C)nn2C [compound 28]" assay_system="TLR8 (Homo sapiens, UniProt Q9NR97)" value_measured=6.19

---

Some molecules, each annotated with its measured IC50.
Molecular target: TLR9 (Homo sapiens)
Construct: Fresh blood was collected from normal human donors; endogenous in cells
Sequence (Q9NR96 26-1032): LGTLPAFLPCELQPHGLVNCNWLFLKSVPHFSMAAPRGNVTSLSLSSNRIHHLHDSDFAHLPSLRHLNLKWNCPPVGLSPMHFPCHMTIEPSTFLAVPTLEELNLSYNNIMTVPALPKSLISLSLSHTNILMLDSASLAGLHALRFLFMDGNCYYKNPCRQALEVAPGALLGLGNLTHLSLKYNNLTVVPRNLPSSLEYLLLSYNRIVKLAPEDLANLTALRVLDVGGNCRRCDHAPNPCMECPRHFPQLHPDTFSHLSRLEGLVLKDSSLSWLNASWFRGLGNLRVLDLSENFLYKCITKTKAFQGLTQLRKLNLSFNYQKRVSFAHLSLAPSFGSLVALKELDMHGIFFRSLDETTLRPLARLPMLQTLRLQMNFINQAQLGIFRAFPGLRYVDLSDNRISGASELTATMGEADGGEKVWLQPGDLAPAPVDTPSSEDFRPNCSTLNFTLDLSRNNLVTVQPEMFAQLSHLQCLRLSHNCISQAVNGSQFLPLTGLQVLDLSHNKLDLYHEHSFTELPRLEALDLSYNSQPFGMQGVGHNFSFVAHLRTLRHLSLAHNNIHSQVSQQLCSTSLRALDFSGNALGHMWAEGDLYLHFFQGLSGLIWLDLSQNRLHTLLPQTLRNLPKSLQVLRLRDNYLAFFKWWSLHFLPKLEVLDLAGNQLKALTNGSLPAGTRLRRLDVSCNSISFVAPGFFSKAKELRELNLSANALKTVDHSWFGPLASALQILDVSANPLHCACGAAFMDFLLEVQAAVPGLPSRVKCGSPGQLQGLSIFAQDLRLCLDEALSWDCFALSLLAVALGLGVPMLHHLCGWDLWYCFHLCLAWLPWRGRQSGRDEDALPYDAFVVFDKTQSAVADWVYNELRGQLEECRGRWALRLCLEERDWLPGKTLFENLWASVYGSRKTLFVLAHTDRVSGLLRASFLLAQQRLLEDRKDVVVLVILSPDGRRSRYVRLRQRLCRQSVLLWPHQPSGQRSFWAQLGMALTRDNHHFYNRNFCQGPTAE
Test: huPBMC TLR9 Antagonist IFNα Assay
Settings: human PBMCs stimulated with ODN2216 0.3 μM, 14-16 hrs; IFNα2b AlphaLISA read-out
endpoint-name: IC50

molecule="Cc1cc(N2CCc3c(c(C)nn3CC34CCC(NC(=O)C5CNC5)(CC3)CC4)C2)c2cnn(C)c2n1 [compound 131]" endpoint_name=IC50 value_measured="> 10 µM"
molecule="Cc1nc(N2CCc3c(c(C)nn3CC34CCC(N5CCCC5)(CC3)CC4)C2)c2c(n1)c(C)nn2C [compound 17]" endpoint_name=IC50 value_measured="> 10 µM"
molecule="Cc1nc(N2CCc3c(c(C)nn3CC34CCC(NC5CCC5)(CC3)CC4)C2)c2c(n1)c(C)nn2C [compound 27]" endpoint_name=IC50 value_measured="> 10 µM"

---

target: TLR7 (Homo sapiens); construct: Fresh blood was collected from normal human donors; endogenous in cells; assay: huPBMC TLR7 Antagonist IFNα Assay; conditions: human PBMCs stimulated with ssRNA40 10 μg/mL (DOTAP), 14-16 hrs; IFNα2b AlphaLISA read-out
Sequence (Q9NYK1 27-1049): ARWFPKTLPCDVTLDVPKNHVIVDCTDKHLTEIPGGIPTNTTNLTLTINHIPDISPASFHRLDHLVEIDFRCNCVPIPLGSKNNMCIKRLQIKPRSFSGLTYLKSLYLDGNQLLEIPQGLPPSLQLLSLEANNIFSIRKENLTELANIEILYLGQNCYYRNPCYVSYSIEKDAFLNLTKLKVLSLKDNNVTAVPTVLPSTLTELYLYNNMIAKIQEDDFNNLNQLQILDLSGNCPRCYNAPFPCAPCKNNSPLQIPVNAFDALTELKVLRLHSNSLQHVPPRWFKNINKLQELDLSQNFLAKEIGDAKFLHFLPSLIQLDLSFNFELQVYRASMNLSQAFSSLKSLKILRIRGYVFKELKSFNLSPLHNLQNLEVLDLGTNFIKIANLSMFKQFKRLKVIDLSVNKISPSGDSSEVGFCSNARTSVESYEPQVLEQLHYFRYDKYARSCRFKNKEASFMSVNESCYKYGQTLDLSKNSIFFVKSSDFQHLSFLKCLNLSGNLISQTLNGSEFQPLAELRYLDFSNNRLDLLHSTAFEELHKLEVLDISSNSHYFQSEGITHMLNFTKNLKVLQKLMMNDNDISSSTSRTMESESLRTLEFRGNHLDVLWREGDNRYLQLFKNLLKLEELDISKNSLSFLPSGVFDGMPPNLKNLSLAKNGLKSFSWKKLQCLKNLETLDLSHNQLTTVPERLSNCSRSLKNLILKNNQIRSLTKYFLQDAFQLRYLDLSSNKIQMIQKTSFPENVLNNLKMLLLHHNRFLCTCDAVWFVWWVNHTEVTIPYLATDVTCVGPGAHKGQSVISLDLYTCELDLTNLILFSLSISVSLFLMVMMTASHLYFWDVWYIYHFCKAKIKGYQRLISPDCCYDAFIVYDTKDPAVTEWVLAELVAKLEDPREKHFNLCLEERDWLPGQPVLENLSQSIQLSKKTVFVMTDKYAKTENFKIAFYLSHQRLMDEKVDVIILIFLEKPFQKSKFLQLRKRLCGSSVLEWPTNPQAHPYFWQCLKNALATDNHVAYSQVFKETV
pIC50: −log10 of the molar value.
Decide using pIC50: a value greater than or equal to 8 is condition met, a smaller one is condition not met.

compound="Cc1nc(N2CCc3c(c(C)nn3CC34CCC(NC(=O)[C@@H]5COCCN5)(CC3)CC4)C2)c2c(n1)c(C)nn2C [compound 33]" answer_label="condition not met"
compound="Cc1cc(N2CCc3c(c(C)nn3CC34CCC(NC(=O)OC(C)(C)C)(CC3)CC4)C2)c2ccncc2n1 [Compound No. 147]" answer_label="condition not met"
compound="CNCC(=O)NC12CCC(Cn3nc(C)c4c3CCN(c3cc(C)nc5c3cnn5C)C4)(CC1)CC2 [compound 121]" answer_label="condition met"

---

molecular target: TLR9 (Homo sapiens, UniProt Q9NR96); construct: Fresh blood was collected from normal human donors; endogenous in cells; assay: huPBMC TLR9 Antagonist IFNα Assay; settings: human PBMCs stimulated with ODN2216 0.3 μM, 14-16 hrs; IFNα2b AlphaLISA read-out
endpoint-name: IC50

chemical_string=Cn1ncc2c(N3CCc4c(cnn4CC45CCC(N)(CC4)CC5)C3)nc(N)nc21 assay_system="TLR9 (Homo sapiens, UniProt Q9NR96)" value_measured="> 6.58 µM"
chemical_string=Cc1nc(N2CCc3c(c(C)nn3CC34CCC(N)(CC3)CC4)C2)c2c(n1)c(C)nn2C assay_system="TLR9 (Homo sapiens, UniProt Q9NR96)" value_measured="> 1 µM"
chemical_string=Cc1nc(N2CCc3c(c(C)nn3CC34CCC(N5CCOCC5)(CC3)CC4)C2)c2c(n1)c(C)nn2C assay_system="TLR9 (Homo sapiens, UniProt Q9NR96)" value_measured="> 8.08 µM"

---

Some compounds, each annotated with its measured IC50.
molecular target: TLR8 (Homo sapiens, UniProt Q9NR97); experiment: huPBMC TLR8 Antagonist IL-6 TR-FRET Assay; format: cell-based; parameters: Fresh blood was collected from normal human donors; endogenous in cells; host or cells: human PBMCs from fresh donor blood; conditions: human PBMCs stimulated with ssRNA40 1 μg/ml (DOTAP), 14-16 hrs; IL-6 TR-FRET read-out
endpoint-name: IC50 (nM)

chemical_string=Cc1cc(N2CCc3c(c(C)nn3CC34CCC(N)(CC3)CC4)C2)c2ccn(C)c2n1 endpoint_name=IC50 result_comparator== value_measured=433
chemical_string=Cc1nc(N2CCc3c(c(C)nn3CC34CCC(N5CCCC5)(CC3)CC4)C2)c2c(n1)c(C)nn2C endpoint_name=IC50 result_comparator== value_measured=199
chemical_string=Cc1cc(N2CCc3c(c(C)nn3CC34CCC(NC(=O)CCN)(CC3)CC4)C2)c2cnn(C)c2n1 endpoint_name=IC50 result_comparator== value_measured=245
chemical_string=COCCN(C)C12CCC(Cn3nc(C)c4c3CCN(c3cc(C)nc5c3cnn5C)C4)(CC1)CC2 endpoint_name=IC50 result_comparator== value_measured=139
chemical_string=Cc1nc(N2CCc3c(c(C)nn3CC34CCC(NCC5(CO)COC5)(CC3)CC4)C2)c2c(n1)c(C)nn2C endpoint_name=IC50 result_comparator== value_measured=27
chemical_string=Cc1c2c(nn1CC13CCC(N)(CC1)CC3)CCN(c1ccnc3[nH]ncc13)C2 endpoint_name=IC50 result_comparator=> value_measured=10000
